measured on: human Thyroid Receptor alpha (THRa1), THRA (gene 7067) (UniProt P10827)
Sequence (P10827 whole entry, looked up): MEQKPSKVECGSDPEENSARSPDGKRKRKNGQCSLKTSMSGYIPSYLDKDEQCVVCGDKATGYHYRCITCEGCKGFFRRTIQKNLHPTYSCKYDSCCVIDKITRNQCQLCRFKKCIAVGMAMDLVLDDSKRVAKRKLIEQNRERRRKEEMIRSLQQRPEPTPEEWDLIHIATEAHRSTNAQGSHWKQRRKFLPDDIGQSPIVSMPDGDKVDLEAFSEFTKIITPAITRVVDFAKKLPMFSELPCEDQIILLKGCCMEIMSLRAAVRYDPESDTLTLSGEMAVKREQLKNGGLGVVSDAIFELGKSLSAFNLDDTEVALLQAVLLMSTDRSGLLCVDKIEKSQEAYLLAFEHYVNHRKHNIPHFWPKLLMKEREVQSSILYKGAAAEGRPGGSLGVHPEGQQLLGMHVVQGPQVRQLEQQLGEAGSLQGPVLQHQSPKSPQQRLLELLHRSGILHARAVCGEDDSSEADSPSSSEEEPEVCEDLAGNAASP
method summary: ATG_THRa1_TRANS: Attagene TRANS-FACTORIAL HepG2 Assay for human Thyroid Receptor alpha (THRa1) (AID 2283014)
Inconclusive results are not listed. Active and inactive are the calls of the source. Rule for the calls: active = hit-call score of the fitted dose curve at least 0.9, where 1 is the maximum; inconclusive = response in the unintended direction; inactive = score below 0.9.
measurement type: outcome

compound	test result
Oc1ccc(I)cc1	inactive
Nc1ccc(Cl)cc1	inactive
OCC(F)(F)OC(F)(F)C(F)(F)OC(F)(F)C(F)(F)OC(F)(F)F	inactive
O=[N+]([O-])c1cc(Cl)ccc1Cl	inactive
C=CC(=O)OCC(F)(F)C(F)F	inactive
ClC1=C(Cl)C2(Cl)C3C(Cl)C(Cl)CC3C1(Cl)C2(Cl)Cl (stereo not given)	inactive
CCCCc1ccccc1	inactive
c1cc2c3c(cccc3c1)CC2	inactive
N#Cc1ccc(O)cc1	inactive
O=P(OCC(Br)CBr)(OCC(Br)CBr)OCC(Br)CBr (stereo not given)	inactive
